# System: HOP-62 NSCLC
# method: NCI tumour cell line growth inhibition, 48 h
endpoint.name: log10 TGI (log10 of the value in µM)
Kindly note that the scale is log10 and the underlying TGI is in µM.

Query: log10 TGI; subject: O=C1c2ccccc2-c2c1c1ccccc1c(=O)n2CCCNCCCCNCCCN1C(=O)c2ccccc2C2C(=O)c3ccccc3C21 (stereo not drawn) 0.03

Query: log10 TGI; subject: C=C[C@]1(C)CCC2=C(CCC3C2(C)CCC[C@@]3(C)COC(C)=O)C1 (stereo partly drawn) 1.60

Query: log10 TGI; subject: `COc1cc(/C=C/C(=O)N2CCN(C(=O)c3cc(OC)c(OC)c(OC)c3)CC2)ccc1OCCCOc1cc2c(cc1OC)C(=O)N1CCC[C@H]1C=N2` -0.03

Query: log10 TGI; subject: `COC(=O)/C=C/C1(O)C=CC(=O)C=C1` 1.16

Query: log10 TGI; subject: `CCN1Cc2nc3sc(C)c(C)c3c(=O)n2C=C1C` 1.88

Query: log10 TGI; subject: `Cc1cc(C(C)(C)C)cc(CNC2CCCCC2)c1O` 1.68

Query: log10 TGI; subject: `OCc1ccc(N2CCc3ccccc3C2)cc1Cl` 1.39

Query: log10 TGI; subject: C=C(CN1CC2C[C@](C(=O)OC)(c3cc4ccccc4[nH]3)C1C(OC)C2OC)S(=O)(=O)c1ccccc1 (stereo partly drawn) 1.37

Query: log10 TGI; subject: `Cc1ccc2nc(C=Nc3ccc(Cl)cc3)cc(C)c2c1` 1.35

Query: log10 TGI; subject: CCCCCCCCC(=O)OCC(CS[As](C)C)OC(=O)CCCCCCCC (stereo not drawn) 1.73

Query: log10 TGI; subject: CC(=O)[CH-]C(=O)c1ccccc1.CC(=O)[CH-]C(=O)c1ccccc1.C[C@]12CCC(=O)C=C1CC[C@@H]1C2CC[C@@]2(C)C1CC[C@@H]2[O-].C[C@]12CCC(=O)C=C1CC[C@@H]1C2CC[C@@]2(C)C1CC[C@@H]2[O-].Cl.[Ti+4] (stereo partly drawn) 1.78

Query: log10 TGI; subject: `COc1cc2c(cc1OCCCCOc1cc3c(cc1OC)C(=O)N1CCC[C@H]1C(=O)N3)N=C[C@@H]1CCCN1C2=O` 1.65

Query: log10 TGI; subject: O=C1OCC2=C1C(c1ccc(Cl)c(Cl)c1)c1cc3c(cc1N2CCO)CCC3 (stereo not drawn) 0.97

Query: log10 TGI; subject: CCCCCC/C=C1\CCC(CN2CCOCC2)C1=O (stereo not drawn) 1.52

This collection of values is drawn from PubChem BioAssay (NCI).
